mean fluorescence relative to chimeric antibody listing for selected binders.
Biological target: T1, pig CD47 (pig, UniProt Q9GKE8 19-303)
T1 construct: whole, on cells; also called CD47 on porcine RBCs
T1 sequence (looked up): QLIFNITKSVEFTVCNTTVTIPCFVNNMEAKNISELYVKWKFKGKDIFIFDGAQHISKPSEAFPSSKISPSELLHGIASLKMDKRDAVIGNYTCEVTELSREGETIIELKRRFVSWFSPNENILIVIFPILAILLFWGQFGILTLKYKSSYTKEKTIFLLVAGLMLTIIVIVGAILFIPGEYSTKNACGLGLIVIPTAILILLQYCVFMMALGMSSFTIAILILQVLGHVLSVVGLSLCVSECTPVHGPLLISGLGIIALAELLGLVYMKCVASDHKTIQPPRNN
Assay: flow cytometry on RBCs, CHO supernatant 10 ng/ml
# value in ratio; strip the unit string

BINDER	REPORTED_VALUE
Clone 15 (pVxK7b-037-hum15-LC / pVxK7b-037-hum15-HC) (antibody, human IgG1, kappa, V domains shown) VH: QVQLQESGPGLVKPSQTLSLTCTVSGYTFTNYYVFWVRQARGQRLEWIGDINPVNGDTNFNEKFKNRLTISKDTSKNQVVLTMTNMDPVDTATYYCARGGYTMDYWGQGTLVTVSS VL: AIQLTQSPSSLSASVGDRVTITCRSSQSLVHSNGNTYLHWYQQKPGQAPRLLIYKVSYRFSGVPSRFSGSGSGTEFTLTISSLQPDDFATYYCSQNTHVPRTFGQGTKVEIKR	1.2
Clone 12 (pVxK7b-037-hum12-LC / pVxK7b-037-hum12-HC) (antibody, human IgG1, kappa, V domains shown) VH: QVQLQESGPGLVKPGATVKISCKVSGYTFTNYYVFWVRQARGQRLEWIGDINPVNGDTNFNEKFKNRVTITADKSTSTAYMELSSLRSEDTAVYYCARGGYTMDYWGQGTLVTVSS VL: DIVMTQTPLSLPVTPGEPASISCRSSQSLVHSNGNTYLHWYQQKPGKAPKLLIYKVSYRFSGVPDRFSGSGSGTDFTLKISRVEAEDVGVYYCSQNTHVPRTFGQGTKVEIKR	1.4

Continue with the next binder.
query: What value of mean fluorescence relative to chimeric antibody has been recorded for this entry: Clone 21 (pVxK7b-037-hum21-LC / pVxK7b-037-hum21-HC) (antibody, human IgG1, kappa, V domains shown) VH: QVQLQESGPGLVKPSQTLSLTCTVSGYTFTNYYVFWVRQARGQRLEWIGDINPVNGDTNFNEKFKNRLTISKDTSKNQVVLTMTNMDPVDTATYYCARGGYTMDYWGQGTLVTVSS VL: AIQLTQSPSSLSASVGDRVTITCRSSQSLVHSNGNTYLHWYQQKPGQAPRLLIYKVSYRFSGVPDRFSGSGSGTDFTLKISRVEAEDVGVYYCSQNTHVPRTFGQGTKVEIKR
result: 1.4
